test: Clearance in fasted Sprague-Dawley rat at 1.6 mg/kg, iv and 3.15 mg/kg, po by HTLC-MS/MS analysis; assay type: ADME, organism-based; settings: in vivo
Measured metric: clearance
Quick note: unit goes after the number.

O=C(O)CCNC(=O)c1ccc(CN(c2ccc3c(c2)CCCC3)c2nc(-c3ccc(Cl)c(Cl)c3)cs2)cc1	5 mL/min/kg

So what's the measured clearance for this one? CC(C)(C)c1ccc(-c2csc(N(Cc3ccc(C(=O)NCCC(=O)O)cc3)c3ccc(C4=CCCCC4)cc3)n2)cc1 39 mL/min/kg

----------
experiment: Cmax in fasted Sprague-Dawley rat at 1.59 mg/kg, iv and 3.20 mg/kg, po by HTLC-MS/MS analysis; assay type: ADME, organism-based; settings: in vivo, 3.2 mg/kg
Measured metric: Cmax (ng/mL)
Numbers only, in ng/mL.

So what's the measured Cmax for this one? O=C(O)CCNC(=O)c1ccc(CN(c2ccc(Cl)cc2)c2nc(-c3ccc(OC(F)(F)F)cc3)cs2)cc1 521

----------
Provide the recorded half-life for the entries that follow.
assay: Half life in fasted Sprague-Dawley rat plasma at 1.66 mg/kg, iv by HTLC-MS/MS analysis; assay type: ADME, organism-based; parameters: dose 1.66 mg/kg, route intravenous
Quick note: unit goes after the number.

A selection of reference data follows.
O=C(O)CCNC(=O)c1ccc(CN(c2ccc3c(c2)CCC3)c2nc(-c3ccc(OC(F)(F)F)cc3)cs2)cc1	61 min
O=C(O)CCNC(=O)c1ccc(N(Cc2ccc3c(c2)Cc2ccccc2-3)c2nc(-c3ccc(OC(F)(F)F)cc3)cs2)cc1	46 min
O=C(O)CCNC(=O)c1ccc(N(Cc2ccc3c(c2)Cc2ccccc2-3)c2nc(-c3ccc(C(F)(F)F)cc3)cs2)cc1	40 min

// moving on: another record for half-life
So what's the measured half-life for this one? O=C(O)CCNC(=O)c1ccc(CN(c2ccc3c(c2)CCC3)c2nc(-c3ccc(C(F)(F)F)cc3)cs2)cc1 131 min

----------
target: Gastric inhibitory polypeptide receptor (Homo sapiens); assay: Displacement of [125I]porcine GIP from human recombinant GIPR receptor expressed in BHK cells by scintillation proximity assay; format: cell-based
Sequence (P48546 whole entry): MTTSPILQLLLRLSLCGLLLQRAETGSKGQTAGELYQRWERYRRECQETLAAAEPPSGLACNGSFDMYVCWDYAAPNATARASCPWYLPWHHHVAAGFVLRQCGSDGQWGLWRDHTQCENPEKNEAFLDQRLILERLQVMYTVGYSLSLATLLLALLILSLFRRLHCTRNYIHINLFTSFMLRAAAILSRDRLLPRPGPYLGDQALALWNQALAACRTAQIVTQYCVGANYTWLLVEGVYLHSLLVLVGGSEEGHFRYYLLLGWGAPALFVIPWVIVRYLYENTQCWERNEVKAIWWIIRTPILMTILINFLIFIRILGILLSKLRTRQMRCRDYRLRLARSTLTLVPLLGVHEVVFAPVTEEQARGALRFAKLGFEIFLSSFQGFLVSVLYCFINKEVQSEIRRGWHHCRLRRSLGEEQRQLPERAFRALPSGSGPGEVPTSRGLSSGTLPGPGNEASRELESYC
Provide the recorded pIC50 for the entries that follow.
Numbers only, as −log10 of the molar value.

Below are 5 compounds. Give each one its pIC50.
1. O=C(O)CCNC(=O)c1ccc(N(Cc2ccc3c(c2)Cc2ccccc2-3)c2nc(-c3ccc(Cl)cc3)cs2)cc1
2. CC(C)(C)c1ccc(-c2csc(N(Cc3ccc(C(=O)NCCC(=O)O)cc3)c3ccc(C(C)(C)C)cc3)n2)cc1
3. O=C(O)CCNC(=O)c1ccc(CN(c2nc(-c3ccc(Cl)c(Cl)c3)cs2)C2CCCc3ccccc32)cc1 (configuration not stated)
4. O=C(O)CCNC(=O)c1ccc(CN(c2ccc(Cl)cc2)c2nc(-c3ccc(C(F)(F)F)cc3)cs2)cc1
5. O=C(O)CCNC(=O)c1ccc(CN(c2ccc(OC(F)(F)F)cc2)c2nc(-c3ccc(C(F)(F)F)cc3)cs2)cc1

1: 6.26; 2: 6.14; 3: 5.95; 4: 6.19; 5: 6.08

Below are 6 compounds. Give each one its pIC50.
1. O=C(O)CCNC(=O)c1ccc(CN(c2ccc3c(c2)Cc2ccccc2-3)c2nc(-c3ccc(OC(F)(F)F)cc3)cs2)cc1
2. O=C(O)CCNC(=O)c1ccc(CN(c2ccc3c(c2)CCCC3)c2nc(-c3ccc(Cl)c(Cl)c3)cs2)cc1
3. O=C(O)CCNC(=O)c1ccc(CC(c2ccc(Cl)cc2)c2nc(-c3ccc(C(F)(F)F)cc3)cs2)cc1 (configuration not stated)
4. CC(C)(C)c1ccc(-c2csc(N(Cc3ccc(C(=O)NCCC(=O)O)cc3)c3ccc(C4=CCCCC4)cc3)n2)cc1
5. O=C(O)CCNC(=O)c1ccc(CN(c2ccc(C3=CCCCC3)cc2)c2nc(-c3ccc(Cl)cc3)c(-c3ccccc3)s2)cc1
6. O=C(O)CCNC(=O)c1ccc(CN(c2ccc3c(c2)CCC3)c2nc(-c3ccc(Cl)c(Cl)c3)cs2)cc1

1. 6.31
2. 6.08
3. 6.42
4. 6.14
5. 6.00
6. 6.20

Below are 6 compounds. Give each one its pIC50.
1. O=C(O)CCNC(=O)c1ccc(CN(c2ccc3c(c2)CCC3)c2nc(-c3ccc(C(F)(F)F)cc3)cs2)cc1
2. O=C(O)CCNC(=O)c1ccc(CN(c2ccc(C3=CCCCC3)cc2)c2nc(-c3ccc(C(F)(F)F)cc3)cs2)cc1
3. O=C(O)CCNC(=O)c1ccc(N(Cc2ccc3c(c2)Cc2ccccc2-3)c2nc(-c3ccc(OC(F)(F)F)cc3)cs2)cc1
4. Cc1cc(N(Cc2ccc(C(=O)NCCC(=O)O)cc2)c2nc(-c3cc(C(F)(F)F)cc(C(F)(F)F)c3)cs2)ccc1C(C)C
5. O=C(O)CCNC(=O)c1ccc(CN(c2ccc(Cl)cc2)c2nc(-c3ccc(OC(F)(F)F)cc3)cs2)cc1
6. O=C(O)CCNC(=O)c1ccc(CN(c2ccc(SC(F)(F)F)cc2)c2nc(-c3ccc(C(F)(F)F)cc3)cs2)cc1

5.96
6.43
6.14
6.23
6.06
6.11

Below are 7 compounds. Give each one its pIC50.
1. O=C(O)CCNC(=O)c1ccc(CN(c2ccc(C(F)(F)F)cc2)c2nc(-c3ccc(Cl)cc3)cs2)cc1
2. O=C(O)CCNC(=O)c1ccc(N(Cc2ccc3c(c2)Cc2ccccc2-3)c2nc(-c3ccc(C(F)(F)F)cc3)cs2)cc1
3. O=C(O)CCNC(=O)c1ccc(CN(c2ccc(C3=CCCCC3)cc2)c2nc(-c3ccccc3)cs2)cc1
4. O=C(O)CCNC(=O)c1ccc(CN(c2ccc3c(c2)CCC3)c2nc(-c3ccc(OC(F)(F)F)cc3)cs2)cc1
5. Cc1cc(N(Cc2ccc(C(=O)NCCC(=O)O)cc2)c2nc(-c3ccc(C(F)(F)F)cc3)cs2)ccc1C(C)C
6. O=C(O)CCNC(=O)c1ccc(CN(c2ccc3c(c2)CCCC3)c2nc(-c3ccc(C(F)(F)F)cc3)cs2)cc1
7. O=C(O)CCNC(=O)c1ccc(CN(c2ccc(C3=CCCCC3)cc2)c2nc(-c3ccc(OC(F)(F)F)cc3)cs2)cc1

[6.00, 6.19, 6.41, 6.02, 6.20, 6.25, 6.68]
